The values you see were collected from the METLIN SMRT retention time set (Domingo-Almenara et al. 2019).

- Test Details: gradient 5% acetonitrile 3 min, to 50% in 2 min, to 85% in 15 min, held 3 min, 100 µL/min
- Test Settings: column: Zorbax Extend-C18 2.1 x 50 mm; eluents: water / acetonitrile, 0.1% formic acid
Quick list: RP-LC retention time per entry.
Metric: RP-LC retention time

> print(dat)
                                smiles.code                metric  experimental.value
1  Cc1cc(NC(=O)c2cc3c(=O)n(CC(C)C)ccc3n2C)ccc1Br  RP-LC retention time              1030 s
2  COCc1nc2cccnc2n1C1CCN(C(=O)Nc2cc(C)ccc2C)CC1  RP-LC retention time               710 s
3  Cc1oc2c(c1C(=O)Nc1ccc(F)c(F)c1)C1=NC(C)(C)CN1C=N2  RP-LC retention time               655 s
4  COc1ccc(CNC2=NCCNC23CCN(S(=O)(=O)c2cc(C)c(C)cc2C)CC3)cc1  RP-LC retention time               794 s
5  COc1ccc(NC(=O)CN2CCc3[nH]c4c(C)c(Cl)ccc4c(=O)c3C2)cc1Cl  RP-LC retention time               762 s

====

Quick list: RP-LC retention time per entry.
- Test Details: gradient 5% acetonitrile 3 min, to 50% in 2 min, to 85% in 15 min, held 3 min, 100 µL/min
- Test Settings: column: Zorbax Extend-C18 2.1 x 50 mm; eluents: water / acetonitrile, 0.1% formic acid
Metric: RP-LC retention time

> print(dat)
                                   compound  experimental.value
1  Cc1ccc(-c2noc(Cn3nc(-c4ccccc4)ccc3=O)n2)cc1              1080 s
2  Cc1ccc(C(C)NC(=O)C2CCN(c3nccnc3Oc3ccccc3)CC2)c(C)c1 (centres undefined)              1090 s
3  Cc1ccc(-c2noc(-c3nc(Cc4cccc(F)c4)no3)n2)cc1              1180 s
4  Cn1nc(-c2nc(Cc3ccccc3)no2)c2c1CCN(C(=O)C(C)(C)C)C2               937 s
5  NC(=O)C1CCN(C2CC(=O)N(c3ccc(Cl)c(Cl)c3)C2=O)CC1 (centres undefined)               611 s
6  CCOc1cc(=O)n2c(c1C(=O)N1CCCc3ccccc31)CCCC2               707 s
7  COc1ccc(OC)c(S(=O)(=O)N2CCCC(C)(C(=O)NCc3cccc(F)c3)C2)c1 (centres undefined)               916 s
8  O=C(Nc1nnc(-c2cc(Cl)sc2Cl)o1)c1cccc(C(F)(F)F)c1              1010 s
9  Cc1ccc(-c2nc(-c3cccc(-c4ccn[nH]4)c3)no2)s1              1020 s

====

Quick list: RP-LC retention time per entry.
- Test Details: gradient 5% acetonitrile 3 min, to 50% in 2 min, to 85% in 15 min, held 3 min, 100 µL/min
- Test Settings: column: Zorbax Extend-C18 2.1 x 50 mm; eluents: water / acetonitrile, 0.1% formic acid
Metric: RP-LC retention time (s)

> print(dat)
                                    molecule  experimental.value
 1         COCCOC1CCN(S(=O)(=O)c2ccccc2C)CC1                 810
 2  CN(C)C(=O)c1ccc2c(c1)N(CC(=O)N1CCN(c3ccccn3)CC1)C(=O)CS2                 573
 3  O=C(c1ccc2nc[nH]c2c1)N1CCCn2nc(-c3ccc(Cl)cc3)cc2C1                 643
 4    CCOC(=O)N1CCC(NC(=O)C(=O)NCc2cccs2)CC1                 692
 5  COc1ccccc1NC(=O)CN1CCc2[nH]c3c(OC)ccc(Cl)c3c(=O)c2C1                 638
 6  COc1cccc(S(=O)(=O)N2CCC3(CC2)N(C2CCCC2)C(=O)CS3=O)c1 (stereo not given)                 780
 7  CCOC(=O)C(CC)Oc1cc(O)c2c(=O)cc(-c3ccccc3)oc2c1 (stereo not given)                 760
 8  CC1=C(C(=O)NCCCOC(C)C)C2(CCN(Cc3ccccc3)CC2)OC1=O                 644
 9  Cc1ccc(C)c(CNC(=O)C2CCN(c3cncnc3N3CCOCC3)CC2)c1                 654
10  CCCN1CCN(CCCNC(=O)CCc2nc(N3CCCCC3)c3c(CC)noc3n2)CC1                 598
11  N#Cc1ccccc1-c1cc(-c2ccccn2)cn(-c2ccccc2)c1=O                 941
12  O=C(Cn1cc(-c2nnco2)c2ccccc21)NCc1cccc(Cl)c1                 817
13  COc1cccc(S(=O)(=O)N2CCC(n3cnnc3C3CC3)CC2)c1                 695
14  CCN1C(=O)COc2ccc(-c3csc(NC(=O)c4ccccc4Cl)n3)cc21                 968
15  O=C(NCc1ccco1)C1CCN(c2nc3ccc(-c4cccnc4)nc3s2)CC1                 644
16          Cc1cc(C(=O)NCC(C)C)c2cc(F)ccc2n1                 698
17  Cn1c(=O)c2nc(SCCC(=O)Nc3ccc(Cl)cc3)n(C)c2n(C)c1=O                 732
18  Cc1ccc(NC(=O)NCCC2CCN(S(=O)(=O)c3ccc(F)cc3)CC2)cc1                 925
19  c1cc(CN2CCC(Oc3nccnc3N3CCOCC3)C2)ccn1 (stereo not given)                 546
20  Cc1cc(F)ccc1NC(=O)Cn1nc2cc(-c3ccccc3)nc(C)n2c1=O                 909

====

Quick list: RP-LC retention time per entry.
- Test Details: gradient 5% acetonitrile 3 min, to 50% in 2 min, to 85% in 15 min, held 3 min, 100 µL/min
- Test Settings: column: Zorbax Extend-C18 2.1 x 50 mm; eluents: water / acetonitrile, 0.1% formic acid
Metric: RP-LC retention time (s)

> print(dat)
                                    molecule                metric  u  experimental.value
 1  COC(=O)c1cc2c([nH]c1=O)CC(c1ccc(OC)cc1OC)CC2=O (stereo not given)  RP-LC retention time  s                 699
 2  CCc1ccc(OCC(=O)Nc2cnn(C)c(=O)c2N2CCOCC2)cc1  RP-LC retention time  s                 889
 3  O=S(=O)(c1c[nH]c2ncccc12)N1CCN(c2ccccc2)CC1  RP-LC retention time  s                 805
 4   CCOc1ccc(OCC)c(NC(=O)C(=O)c2ccc[nH]2)c1  RP-LC retention time  s                1070
 5  CCCn1cc(CCNS(=O)(=O)c2cccc(C#N)c2)c2cccnc21  RP-LC retention time  s                 789
 6  Cc1cc(C)cc(-c2nc(C3CC(=O)N(c4ccc(F)cc4)C3)no2)c1 (stereo not given)  RP-LC retention time  s                1060
 7  Cn1c(=O)c2c(nc([N+](=O)[O-])n2Cc2ccc(F)cc2)n(C)c1=O  RP-LC retention time  s                 795
 8  O=C(CCc1c(-c2ccccc2)nc2ccccn12)Nc1ccccc1C(F)(F)F  RP-LC retention time  s                 691
 9  COc1ccc(Cl)cc1C(=O)CN1C(=O)COc2ccccc2C1=O  RP-LC retention time  s                 988
10  O=C1NCCCn2cc(S(=O)(=O)N3CCN(c4ccc(F)cc4)CC3)cc21  RP-LC retention time  s                 730

====

- Test Details: gradient 5% acetonitrile 3 min, to 50% in 2 min, to 85% in 15 min, held 3 min, 100 µL/min
- Test Settings: column: Zorbax Extend-C18 2.1 x 50 mm; eluents: water / acetonitrile, 0.1% formic acid
Classification by RP-LC retention time follows these ranges: Low (below 600 s), Medium (600 s to below 900 s), High (900 s or more)

> print(dat)
                                   compound  discrete.label
1  COc1ccc(NC(=O)CN2CCN(Cc3ccc(F)cc3)C(=O)C2=O)cc1          Medium
2  O=C(NCC(c1ccsc1)N1CCc2ccccc2C1)c1cccs1 (stereo not given)             Low
3  CCCN1CCN(CCCNC(=O)CSc2nc3ccccc3n(C)c2=O)CC1             Low
4             CC(C)Sc1nccn2nc(-c3cccs3)cc12            High
5  O=C(Nc1cccc(-c2nccnc2N2CCOCC2)c1)Nc1ccc(F)c(Cl)c1          Medium
6  O=C(NCCCN1CCCCC1)c1csc(-c2ccc(N3CCCC3)nc2)n1             Low
7  CCc1nc(-c2csc(S(=O)(=O)N3CCC(C(=O)Nc4cccc(Cl)c4C)CC3)c2)no1            High
8            CSc1ccc(NC(=O)Nc2cc(C)ccn2)cc1          Medium
